Target: pre-fibrillized Amylin/IAPP fibrils (Homo sapiens, UniProt P10997)
Construct: purchased Bachem Inc
Sequence (P10997 34-70 limits assumed): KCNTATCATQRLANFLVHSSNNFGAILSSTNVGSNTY
Test: Thioflavin T fluorometry, disruption/disassembly of pre-formed Amylin/IAPP fibrils
Format: biochemical
Conditions: Amylin/IAPP:test compound wt/wt ratio 1:0.001; 3-day incubation at 37° C.
measured_endpoint: % Inhibition Amylin/IAPP (result ± S.D.), Thioflavin T fluorometry (%)

molecule	observed_measurement
O=C(Nc1cccc(O)c1O)c1cccc(O)c1O [Compound 3]	5.0
O=S(=O)(Nc1ccc(O)c(O)c1)c1ccc(O)c(O)c1 [Compound 5]	14.1
Oc1ccc(C23CC4CC(C2)CC(c2ccc(O)c(O)c2)(C4)C3)cc1O [Compound 9, 1,3 bis(3,4 dihydroxyphenyl) Adamantane]	4.3
Oc1ccc(-c2nnc(-c3ccc(O)c(O)c3)[nH]2)cc1O [Compound 7]	4.6
Oc1ccc(-c2cnc(-c3ccc(O)c(O)c3)[nH]2)cc1O [Compound 6, 2,4 bis(3,4 dihydroxyphenyl) Imidazole]	17.2
O=C(Nc1ccc(O)c(O)c1)c1cccc(O)c1O [Compound 1]	14.3
O=C(Nc1cccc(O)c1O)c1ccc(O)c(O)c1 [Compound 2]	5.1
CN(C(=O)c1ccc(O)c(O)c1)c1ccc(O)c(O)c1 [Compound 4]	9.8
Oc1ccc(-c2cc(-c3ccc(O)c(O)c3)[nH]n2)cc1O [Compound 8, 3,5 bis(3,4 Dihydroxyphenyl)Pyrazole]	8.1
